experiment: Half-life in rat plasma; format: ADME
Quick rule for you: half-life at 6 min or higher means YES, lower means NO.

Worked examples, 5 compounds total:
Compound structure	Label
COC(=O)c1cc(C(=CCCCc2ccccc2)c2cc(Cl)c(OC)c(C(=O)OC)c2)cc(Cl)c1OC	YES
COC(=O)CCCC=C(c1cc(Br)c(OC)c(C(=O)OC)c1)c1cc(Br)c(OC)c(C(=O)OC)c1	YES
COC(=O)CCC/C=C(/c1ccc(OC)c(OC)c1)c1cc(C)c(OC)c(C(=O)OC)c1	YES
CCCOC(=O)CCCC=C(c1cc(Br)c(OC)c(C(=O)OC)c1)c1cc(Br)c(OC)c(C(=O)OC)c1	NO
CCOC(=O)c1cc(C(=CCCCC(=O)OC)c2cc(C)c(OCC)c(C(=O)OCC)c2)cc(C)c1OCC	YES

Ask | Reported half-life at or above 6 min? COC(=O)CCCC=C(c1cc(Cl)c(OC)c(C(=O)SC)c1)c1cc(Cl)c(OC)c(C(=O)SC)c1
Reply | YES

Ask | Reported half-life at or above 6 min? CCCOC(=O)CCCC=C(c1cc(C)c(OC)c(C(=O)OC)c1)c1cc(C)c(OC)c(C(=O)OC)c1
Reply | NO

Ask | Reported half-life at or above 6 min? CCCOC(=O)CCCC=C(c1cc(Cl)c(OC)c(C(=O)OC)c1)c1cc(Cl)c(OC)c(C(=O)OC)c1
Reply | YES

Data provenance: ChEMBL document CHEMBL1137077
